Measured Papp at 3 h by item
# procedure_details: Apparent permeability in human Caco-2 cells incubated for 180 mins by LC-MS/MS method
# Format: ADME, cell-based
Starred links: 1 amine or outer side, 2 acyl side, 3 side chain; linkers in the order of their positions; H or OH if unused. Positions of bridges follow the written chain, without caps; N, C: chain ends. Non-standard residues stand in square brackets, D forms with d. Residues, ends and D or L forms follow the SMILES beside them. *: point of attachment. hPhe(3-Cl-4-CF3) = N[C@@H](CCc1ccc(C(F)(F)F)c(Cl)c1)C(=O)O; X2 = CN([C@@H](CC(=O)[*:2])C(=O)n1cccc1)[*:1]; NMePhe(4-Cl) = CN[C@@H](Cc1ccc(Cl)cc1)C(=O)O; Phe(3-Cl) = N[C@@H](Cc1cccc(Cl)c1)C(=O)O; NMeGly(cPent) = CN[C@H](C(=O)O)C1CCCC1; NMeCha = CN[C@@H](CC1CCCCC1)C(=O)O; NMeChg = CN[C@H](C(=O)O)C1CCCCC1; NMeF = CN[C@@H](Cc1ccccc1)C(=O)O; NMeT = CN[C@H](C(=O)O)[C@@H](C)O; NMeD = CN[C@@H](CC(=O)O)C(=O)O; NMeL = CN[C@@H](CC(C)C)C(=O)O; NMeNva = CCC[C@H](NC)C(=O)O; Azetidin(1-yl) = C1CN(*)C1; NMeA = CN[C@@H](C)C(=O)O; Piperidide = C1CCN(*)CC1; Ac5c = NC1(C(=O)O)CCCC1; Aze = O=C(O)[C@@H]1CCN1; Sar = CNCC(=O)O
Please reply with the bare figure in ×10⁻⁶ cm/s and do not write the unit itself.

CC[C@H](C)[C@@H]1NC(=O)[C@H](CC(C)C)N(C)C(=O)C[C@@H](C(=O)N(C)C)N(C)C(=O)[C@H](C2CCCC2)N(C)C(=O)C2(CCCC2)NC(=O)[C@@H]2CCCN2C(=O)[C@H](CCc2ccc(C(F)(F)F)c(Cl)c2)NC(=O)CN(C)C(=O)[C@H](CC2CCCCC2)N(C)C(=O)[C@@H]2CCN2C(=O)[C@H](C)N(C)C1=O ([NMeL]I[NMeA][Aze][NMeCha][Sar][hPhe(3-Cl-4-CF3)]P[Ac5c][NMeGly(cPent)][NMeD]-NMe2; lactam N-11) | 2.61
CC[C@H](C)[C@@H]1NC(=O)[C@H](CC(C)C)N(C)C(=O)C[C@@H](C(=O)N2CCC2)N(C)C(=O)[C@H](C2CCCC2)N(C)C(=O)C2(CCCC2)NC(=O)[C@@H]2CCCN2C(=O)[C@H](CCc2ccc(C(F)(F)F)c(Cl)c2)NC(=O)CN(C)C(=O)[C@H](CC2CCCCC2)N(C)C(=O)[C@@H]2CCN2C(=O)[C@H](C)N(C)C1=O ([NMeL]I[NMeA][Aze][NMeCha][Sar][hPhe(3-Cl-4-CF3)]P[Ac5c][NMeGly(cPent)][NMeD]-{Azetidin(1-yl)}; lactam N-11) | 2.66
CC[C@H](C)[C@@H]1NC(=O)[C@H]([C@@H](C)O)N(C)C(=O)C[C@@H](C(=O)N2CCCCC2)N(C)C(=O)[C@H](C2CCCCC2)N(C)C(=O)C2(CCCC2)NC(=O)[C@@H]2CCCN2C(=O)[C@H](CCc2ccc(C(F)(F)F)c(Cl)c2)NC(=O)CN(C)C(=O)[C@H](CC2CCCCC2)N(C)C(=O)CN(C)C(=O)CN(C)C1=O ([NMeT]I[Sar][Sar][NMeCha][Sar][hPhe(3-Cl-4-CF3)]P[Ac5c][NMeChg][NMeD]-Piperidide; lactam N-11) | 0.15
CCC[C@H]1C(=O)N[C@@H]([C@@H](C)CC)C(=O)N(C)CC(=O)N(C)CC(=O)N(C)[C@@H](CC2CCCCC2)C(=O)N(C)CC(=O)N[C@@H](CCc2ccc(C(F)(F)F)c(Cl)c2)C(=O)N2CCC[C@H]2C(=O)NC2(CCCC2)C(=O)N(C)[C@@H](C2CCCCC2)C(=O)N(C)[C@H](C(=O)N2CCCCC2)CC(=O)N1C ([NMeNva]I[Sar][Sar][NMeCha][Sar][hPhe(3-Cl-4-CF3)]P[Ac5c][NMeChg][NMeD]-Piperidide; lactam N-11) | 0.85

--- query ---
Tell me measured Papp at 3 h for CCC[C@H]1C(=O)N(C)[C@H](C(=O)n2cccc2)CC(=O)N(C)[C@@H](C)C(=O)N[C@@H]([C@@H](C)CC)C(=O)N(C)CC(=O)N(C)CC(=O)N(C)[C@@H](Cc2ccc(Cl)cc2)C(=O)N(C)CC(=O)N[C@@H](Cc2cccc(Cl)c2)C(=O)N[C@@H](Cc2ccccc2)C(=O)N(C)[C@@H](Cc2ccccc2)C(=O)N1C (cyclo(F[NMeF][NMeNva][X2][NMeA]I[Sar][Sar][NMePhe(4-Cl)][Sar][Phe(3-Cl)])) please.
0.14

Cited source: ChEMBL document CHEMBL5550184
